// provenance: patent US7767659B2

- System: HeLa-APL
- assay info: Inhibition of cells growth by colorimetric assay (SRB)
- condition set: Homo sapiens, 48 h, read-out: HELA-APL TGI
Can you tell me IC (TGI) for the items I'm about to list?
Give bare numbers, in nM.

Solved cases (4 shown):
compound	experimental result
C=CCN1[C@@H]2c3c(cc(C)c(OC)c3OC(=O)OC(C)(C)C)C[C@H]1[C@H](C#N)N1C2[C@@H]2SC[C@]3(NCCc4cc(OC(=O)OC(C)(C)C)c(OC)cc43)C(=O)OC[C@H]1c1c3c(c(C)c(OC(C)=O)c12)OCO3 (some centres unmarked)	121
CCCCCCCC(=O)Oc1c(C)c2c(c3c1[C@H]1SC[C@]4(NCCc5cc(O)c(OC)cc54)C(=O)OC[C@@H]3N3C1[C@@H]1N[C@@H](Cc4cc(C)c(OC)c(O)c41)[C@@H]3C#N)OCO2 (some centres unmarked)	21.4
CCCCCCCCCCCCCCCC(=O)NC1CS[C@@H]2c3c(OC(C)=O)c(C)c4c(c3[C@H](COC1=O)N1C2[C@@H]2N[C@@H](Cc3cc(C)c(OC)c(O)c32)[C@@H]1O)OCO4 (some centres unmarked)	549
COc1c(C)cc2c(c1O)[C@H]1N[C@@H](C2)[C@H](C#N)N2C1[C@@H]1SC[C@]3(NCCc4c3[nH]c3ccc(C)cc43)C(=O)OC[C@H]2c2c3c(c(C)c(OC(C)=O)c21)OCO3 (some centres unmarked)	4.88

Next compound, IC (TGI) to be filled in.
Recorded IC (TGI) of COc1cc2c(cc1O)CCN[C@]21CS[C@@H]2c3c(O)c(C)c4c(c3[C@H](COC1=O)N1C2[C@@H]2N[C@@H](Cc3cc(C)c(OC)c(O)c32)[C@@H]1O)OCO4 (some centres unmarked) , please. 6.32

* * *

- Tested on: LoVo
- assay info: cells
- condition set: read-out: LC50 LOVO; LOVO; SRB, 48 hours exposure
readout name: CC50

molecule	readout name	experimental result
C=CCN1C2Cc3cc(C)c(OC)c(O)c3C1C1C3SCC(NC(C)=O)C(=O)OCC(c4c5c(c(C)c(OC(C)=O)c43)OCO5)N1C2C#N (centres unmarked)	CC50	14.5 µM

Query for LoVo: what CC50 does the record show for C=CCN1C2Cc3cc(C)c(OC)c(O)c3C1C1C3SCC(NC(=O)CC)C(=O)OCC(c4c5c(c(C)c(OC(C)=O)c43)OCO5)N1C2C#N (centres unmarked) ? 0.707 µM

* * *

- System: IGROV-1
- assay info: Inhibition of cells growth by colorimetric assay (SRB)
- condition set: Homo sapiens, IGROV-1, 48 h, read-out: IGROV GI50
- Method: This form of the assay employs 96 well cell culture microplates of 9 mm diameter (Faircloth, 1988; Mosmann, 1983). Most of the cell lines are obtained from American Type Culture Collection (ATCC) derived from different human cancer types. […] The values for mean +/− SD of data from triplicate wells are calculated. Some parameters for cellular responses can be calculated: GI=growth inhibition, TGI=total growth inhibition (cytostatic effect) and LC=cell killing (cytotoxic effect).
Provide the recorded GI50 for the entries that follow.
One number for each entry, in nM.

molecule	GI50 / nM
C=CCN1[C@@H]2c3c(cc(C)c(OC)c3O)C[C@H]1[C@H](O)N1C2[C@@H]2SC[C@]3(NCCc4cc(O)c(OC)cc43)C(=O)OC[C@H]1c1c3c(c(C)c(OC(C)=O)c12)OCO3 (stereo partly drawn) [compound 67]	31.2

I'm hoping you can list GI50 for every molecule here, please.
1. COc1ccc2[nH]c3c(c2c1)CCN[C@]31CS[C@@H]2c3c(OC(C)=O)c(C)c4c(c3[C@H](COC1=O)N1C2[C@@H]2N[C@@H](Cc3cc(C)c(OC)c(O)c32)[C@@H]1O)OCO4 (stereo partly drawn) [compound 64]
2. COc1c(C)cc2c(c1O)[C@H]1N[C@@H](C2)[C@H](O)N2C1[C@@H]1SCC(=O)C(=O)OC[C@H]2c2c3c(c(C)c(OC(C)=O)c21)OCO3 (stereo partly drawn) [compound 43]

1. 1.78
2. 10.6
